SYSTEM_UNDER_TEST: hM5 (Homo sapiens)
Construct: expressed in transfected cells
Sequence (P08912 1-532): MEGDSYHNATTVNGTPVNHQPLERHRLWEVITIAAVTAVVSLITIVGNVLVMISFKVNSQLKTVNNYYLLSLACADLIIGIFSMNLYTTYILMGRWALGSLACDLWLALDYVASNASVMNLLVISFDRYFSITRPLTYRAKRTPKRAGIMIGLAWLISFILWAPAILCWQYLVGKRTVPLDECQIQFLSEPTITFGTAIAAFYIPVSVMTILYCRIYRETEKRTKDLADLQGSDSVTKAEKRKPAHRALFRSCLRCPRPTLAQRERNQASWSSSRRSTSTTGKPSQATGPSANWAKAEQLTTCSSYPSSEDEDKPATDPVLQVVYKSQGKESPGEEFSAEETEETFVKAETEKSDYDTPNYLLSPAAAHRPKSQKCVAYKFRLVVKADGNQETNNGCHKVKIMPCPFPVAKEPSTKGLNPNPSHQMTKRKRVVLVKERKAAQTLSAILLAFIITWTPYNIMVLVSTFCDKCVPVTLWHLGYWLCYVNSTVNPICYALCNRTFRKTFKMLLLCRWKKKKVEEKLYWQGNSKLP
ASSAY_REMARKS: Calcium mobilization concentration-response (IC50 vs EC80 acetylcholine), CHO hM5
Format: cell-based
MEASUREMENT_PARAMETERS: CELL LINE hM5; calcium mobilization, EC80 acetylcholine addition; read-out: IC50
pIC50: −log10 of the molar value.
QUANTITY_NAME: pIC50

[[record]]
compound = "Cc1cc2ncnn2cc1C1CCN(S(=O)(=O)c2cn(C)cn2)CC1 [Compound 128]"
result_number = 5.89

[[record]]
compound = "O=S(=O)(c1cnc2n1CCCC2)N1CCC(c2cn3ncnc3cc2Cl)CC1 [Compound 343]"
result_number = 7.92

[[record]]
compound = "Cc1cc2ncnn2cc1C1CCN(S(=O)(=O)c2cnn(C)c2C(F)F)CC1 [Compound 156]"
result_number = 8.04

[[record]]
compound = "Cc1cc2ncnn2cc1C1CCN(S(=O)(=O)c2cnn(C)c2C(F)(F)F)CC1 [Compound 162]"
result_number = 7.02

[[record]]
compound = "O=S(=O)(c1cnn2c1CCC2)N1CCC(c2cn3ncnc3cc2C(F)(F)F)CC1 [Compound 272]"
result_number = 7.13

[[record]]
compound = "Cc1c(S(=O)(=O)N2CC=C(c3cn4ncnc4c(F)c3Cl)CC2)cnn1C [Compound 381]"
result_number = 7.89

[[record]]
compound = "Cc1nn(C)c(C(F)(F)F)c1S(=O)(=O)N1CCC(c2cn3ncnc3cc2C(F)(F)F)CC1 [Compound 281]"
result_number = 5.85

[[record]]
compound = "Cc1cc2c(cc1C1CCN(S(=O)(=O)c3cnc(C)n3C)CC1)OCO2 [Compound 373]"
result_number = 7.89

[[record]]
compound = "Cc1cc2ncnn2nc1C1CCN(S(=O)(=O)c2c(C)nn(C)c2Cl)CC1 [Compound 179]"
result_number = 7.18

[[record]]
compound = "O=S(=O)(c1cnc2n1CCCC2)N1CCC(c2cn3ncnc3cc2F)CC1 [Compound 326]"
result_number = 7.00


a: Cc1cc2ncnn2cc1C1=CCN(S(=O)(=O)c2cc3c(cc2F)OCC3)CC1 [Compound 46]
b: Cc1cc2ncnn2cc1C1CCN(S(=O)(=O)c2cccc3nn(C)cc23)CC1 [Compound 290]
c: [2H]C([2H])([2H])n1nc(Cl)c(S(=O)(=O)N2CCC(c3cn4ncnc4c(F)c3C)CC2)c1C [Compound 319]
Given 3 compounds, produce a descending ranking by pIC50. // respond by listing labels in the order requested
c, b, a

a: Cc1cc2ncnn2cc1C1CCN(S(=O)(=O)c2c(C)n[nH]c2C)CC1 [Compound 157]
b: O=S(=O)(c1cnn2c1CCC2)N1CCC(c2cn3ncnc3cc2F)CC1 [Compound 232]
c: Cc1nn(C)c(C(F)(F)F)c1S(=O)(=O)N1CCC(c2cn3ncnc3c(F)c2C)CC1 [Compound 266]
d: O=S(=O)(c1cnc2n1CCCC2)N1CCC(c2cn3ncnc3cc2C(F)(F)F)CC1 [Compound 339]
hey, can you rank those compounds up there by pIC50? biggest number first please Please list the labels according to the requested order.
b, d, c, a

I: Cc1cc2ncnn2cc1C1CCN(S(=O)(=O)c2ccc3c(c2F)C(C)CO3)CC1 (stereo not shown) [Compound 104]
II: [2H]C([2H])([2H])n1nc(Cl)c(S(=O)(=O)N2CCC(c3cn4ncnc4cc3C)CC2)c1C [Compound 260]
Please tell me which of the two, I or II , has the higher reported pIC50 value. Refer to your chosen item by its label in the answer.
II
(II: 7.54, I: 6.94)

###

SYSTEM_UNDER_TEST: hM5 (Homo sapiens, UniProt P08912)
Construct: expressed in transfected cells
Sequence (P08912 1-532): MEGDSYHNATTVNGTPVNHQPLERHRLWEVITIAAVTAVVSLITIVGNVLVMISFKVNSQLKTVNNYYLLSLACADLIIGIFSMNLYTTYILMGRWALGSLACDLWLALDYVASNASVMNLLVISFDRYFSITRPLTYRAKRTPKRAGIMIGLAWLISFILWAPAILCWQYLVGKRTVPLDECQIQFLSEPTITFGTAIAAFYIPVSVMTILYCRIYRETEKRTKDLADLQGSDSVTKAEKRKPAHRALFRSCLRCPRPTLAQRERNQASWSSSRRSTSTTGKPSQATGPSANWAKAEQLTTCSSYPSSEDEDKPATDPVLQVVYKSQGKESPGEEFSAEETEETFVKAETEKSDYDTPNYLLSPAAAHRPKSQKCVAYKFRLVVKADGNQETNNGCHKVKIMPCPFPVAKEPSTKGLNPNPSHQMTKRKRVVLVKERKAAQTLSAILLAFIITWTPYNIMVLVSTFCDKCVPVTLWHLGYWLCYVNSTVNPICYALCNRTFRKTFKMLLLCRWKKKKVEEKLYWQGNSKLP
ASSAY_REMARKS: Calcium mobilization concentration-response (IC50 vs EC80 acetylcholine), CHO hM5
Format: cell-based
MEASUREMENT_PARAMETERS: CELL LINE hM5; calcium mobilization, EC80 acetylcholine addition; read-out: IC50
QUANTITY_NAME: IC50 (nM)

I: Cc1cc2nccn2nc1C1CCN(S(=O)(=O)c2cnn(C)c2C)CC1
II: Cc1cc2ncnn2cc1C1CCN(S(=O)(=O)c2cnc3c(c2)C(C)CO3)CC1 (stereo not shown)
III: Cc1cc2ncnn2cc1C1CCN(S(=O)(=O)c2cccc3c2OCCO3)CC1
Ranking by IC50 (descending) is requested for the entries above. Note for the reader: the ranking is given by listing the labels in the order requested.
II, III, I

###

SYSTEM_UNDER_TEST: hM5 (Homo sapiens, UniProt P08912)
Construct: expressed in transfected cells
Sequence (P08912 1-532): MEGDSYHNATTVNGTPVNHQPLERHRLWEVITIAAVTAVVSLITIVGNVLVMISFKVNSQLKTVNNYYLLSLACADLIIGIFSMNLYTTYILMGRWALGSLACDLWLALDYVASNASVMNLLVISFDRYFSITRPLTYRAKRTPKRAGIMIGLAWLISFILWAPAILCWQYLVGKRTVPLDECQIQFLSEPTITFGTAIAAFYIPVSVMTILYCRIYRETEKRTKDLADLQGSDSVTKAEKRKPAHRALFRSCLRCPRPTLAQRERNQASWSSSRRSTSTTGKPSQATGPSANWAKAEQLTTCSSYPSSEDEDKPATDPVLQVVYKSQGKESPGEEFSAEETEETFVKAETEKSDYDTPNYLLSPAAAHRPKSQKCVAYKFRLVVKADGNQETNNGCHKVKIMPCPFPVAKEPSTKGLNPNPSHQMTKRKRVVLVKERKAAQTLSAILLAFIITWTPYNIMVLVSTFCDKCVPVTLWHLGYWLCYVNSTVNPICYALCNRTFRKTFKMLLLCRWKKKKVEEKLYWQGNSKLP
ASSAY_REMARKS: Calcium mobilization concentration-response (IC50 vs EC80 acetylcholine), CHO hM5
Format: cell-based
MEASUREMENT_PARAMETERS: CELL LINE hM5; calcium mobilization, EC80 acetylcholine addition; read-out: IC50
pIC50: −log10 of the molar value.
QUANTITY_NAME: pIC50

In the examples that follow, each entry is paired with its recorded pIC50.
[[record]]
compound = "[2H]C1([2H])Oc2cc(C)c(C3CCN(S(=O)(=O)c4cnn(C)c4Cl)CC3)cc2OC1([2H])[2H]"
result_number = 6.69

[[record]]
compound = "O=S(=O)(c1cnn2c1CCCC2)N1CCC(c2cn3ncnc3cc2C(F)(F)F)CC1"
result_number = 7.29

[[record]]
compound = "Cc1cc2c(cc1S(=O)(=O)N1CCC(c3ccc4ncnn4c3C)CC1)C(C)CO2 (centres unmarked)"
result_number = 5.20

[[record]]
compound = "Cc1c(S(=O)(=O)N2CCC(c3cn4ncnc4cc3Cl)CC2)cnn1C"
result_number = 7.44

[[record]]
compound = "Cc1cc(C(F)(F)F)ncc1C1CCN(S(=O)(=O)c2cnn(C)c2C)CC1"
result_number = 5.60


I: Cc1c(S(=O)(=O)N2CCC(c3ccc4c(c3)OCO4)CC2)cnn1C
II: Cc1cc2nccn2nc1C1CCN(S(=O)(=O)c2cnn3c2CCC3)CC1
III: Cc1c(S(=O)(=O)N2CCC(c3cn4ncnc4cc3F)CC2)c(Cl)nn1C
Order each entry by recorded pIC50, climbing from the minimum. Sort and list the labels as requested.
I, III, II
(I: 6.51, III: 7.06, II: 7.77)

1: Cc1cc2ncnn2nc1C1=CCN(S(=O)(=O)c2cnn(C)c2C)CC1
2: Cc1c(C2CCN(S(=O)(=O)c3cnn(C(F)F)c3C)CC2)cn2ncnc2c1F
// which entry has the larger pIC50 value, 1 or 2 ? Let me know the label of the one you choose.
2
